Data provenance: paper PMC7360965

target: F-actin (filamentous actin), actin purified from chicken breast (Gallus gallus) (chicken (Gallus gallus), UniProt P68139 1-377); experiment: co-sedimentation; conditions: both partners purified
Ends that are not written are not given here.
The binders listed here are annotated with their Kd.
Reported Endpoint: Kd (nM)

{"Binder": "Human UTRN-ABD (amino acids 1-261) V87D (domain or fragment, also called UTRN-V87D; source: E. coli Rosetta DE3, purified (His-Trap, Superdex-200)) MAKYGEHEASPDNGQNEFSDIIKSRSDEHNDVQKKTFTKWINARFSKSGKPPINDMFTDLKDGRKLLDLLEGLTGTSLPKERGSTRDHALNNVNRVLQVLHQNNVELVNIGGTDIVDGNHKLTLGLLWSIILHWQVKDVMKDVMSDLQQTNSEKILLSWVRQTTRPYSQVNVLNFTTSWTDGLAFNAVLHRHKPDLFSWDKVVKMSPIERLEHAFSKAQTYLGIEKLLDPEDVAVQLPDKKSIIMYLTSLFEVLPQQVTID", "Censoring Operator": ">", "Measured Result": 100000}
{"Binder": "MGVADLIKKFESISKEE (also: FAM label, position not given here, also called lifeAct peptide; source: synthetic peptide (custom synthesized, LifeTein, USA)) [FAM-lifeAct-17 peptide (full-length lifeAct)]", "Censoring Operator": "=", "Measured Result": 2200}
{"Binder": "Human UTRN-ABD (amino acids 1-261) I22D (domain or fragment, source: E. coli Rosetta DE3, purified (His-Trap, Superdex-200)) MAKYGEHEASPDNGQNEFSDIDKSRSDEHNDVQKKTFTKWINARFSKSGKPPINDMFTDLKDGRKLLDLLEGLTGTSLPKERGSTRVHALNNVNRVLQVLHQNNVELVNIGGTDIVDGNHKLTLGLLWSIILHWQVKDVMKDVMSDLQQTNSEKILLSWVRQTTRPYSQVNVLNFTTSWTDGLAFNAVLHRHKPDLFSWDKVVKMSPIERLEHAFSKAQTYLGIEKLLDPEDVAVQLPDKKSIIMYLTSLFEVLPQQVTID", "Censoring Operator": "=", "Measured Result": 38000}
{"Binder": "Human UTRN-ABD (amino acids 1-261) N109A (domain or fragment, source: E. coli Rosetta DE3, purified (His-Trap, Superdex-200)) MAKYGEHEASPDNGQNEFSDIIKSRSDEHNDVQKKTFTKWINARFSKSGKPPINDMFTDLKDGRKLLDLLEGLTGTSLPKERGSTRVHALNNVNRVLQVLHQNNVELVAIGGTDIVDGNHKLTLGLLWSIILHWQVKDVMKDVMSDLQQTNSEKILLSWVRQTTRPYSQVNVLNFTTSWTDGLAFNAVLHRHKPDLFSWDKVVKMSPIERLEHAFSKAQTYLGIEKLLDPEDVAVQLPDKKSIIMYLTSLFEVLPQQVTID", "Censoring Operator": "=", "Measured Result": 55000}
{"Binder": "MGVADLIKKFESIS (not fully specified (N-terminus); also: FAM label, position not given here, source: synthetic peptide (custom synthesized, LifeTein, USA)) [FAM-lifeAct-14 peptide (carboxy-terminal truncated version of lifeAct)]", "Censoring Operator": "=", "Measured Result": 1200}
{"Binder": "Human UTRN-ABD (amino acids 1-261) H29A (domain or fragment, source: E. coli Rosetta DE3, purified (His-Trap, Superdex-200)) MAKYGEHEASPDNGQNEFSDIIKSRSDEANDVQKKTFTKWINARFSKSGKPPINDMFTDLKDGRKLLDLLEGLTGTSLPKERGSTRVHALNNVNRVLQVLHQNNVELVNIGGTDIVDGNHKLTLGLLWSIILHWQVKDVMKDVMSDLQQTNSEKILLSWVRQTTRPYSQVNVLNFTTSWTDGLAFNAVLHRHKPDLFSWDKVVKMSPIERLEHAFSKAQTYLGIEKLLDPEDVAVQLPDKKSIIMYLTSLFEVLPQQVTID", "Censoring Operator": "=", "Measured Result": 2800}
